Kindly state Half life (hours) of dissociation from HLA-B*57:01fos, Comp for each of the entries shown.
target: HLA-B*57:01fos (Homo sapiens, UniProt P01889, D201E/D98Y/E176V/E187L/E204Q/E69M/E70A/G107R/I90N/K202T/L105A/L119I/N104I/N87E/Q89R/Q94S/R106L/R155S/R180L/R86G/S101N/S121V/S35A/S48A/T118I/V36M/Y140S/Y91M); construct: Fos leucine zipper (C); made in house; assay: Fluorescence polarisation dissociation rate measurements; format: binding; details: fluorescence polarisation, 25°C, PBS + 0.5 mg/ml bovine-gamma-globulin, 20 fold excess human β2m; excess unlabelled competing peptide only; one-phase decay, plateau 50 mP (unconstrained for RVD); 3-4 replicates
# unit: h | format: bare number

Suppose we examine the substance KTFK*DVGNLL ; what Half life (hours) of dissociation from HLA-B*57:01fos, Comp value has been reported? 402.30

Which Half life (hours) of dissociation from HLA-B*57:01fos, Comp is reported for this substance? ATFK*GIVRAI 2.34

What does the record list as Half life (hours) of dissociation from HLA-B*57:01fos, Comp for RVDPAK*GLFYF ? 0.31

Value lookup for Half life (hours) of dissociation from HLA-B*57:01fos, Comp; key = NTVELRVK*I 2.67
